In this section, each of the molecules is paired with its reported Ki.
- system: 5-HT2A receptor (Rattus norvegicus, UniProt P14842)
- Construct: from tissue; host or cells: rat frontal cortex (male SD), membrane homogenate
- Sequence (P14842 whole entry): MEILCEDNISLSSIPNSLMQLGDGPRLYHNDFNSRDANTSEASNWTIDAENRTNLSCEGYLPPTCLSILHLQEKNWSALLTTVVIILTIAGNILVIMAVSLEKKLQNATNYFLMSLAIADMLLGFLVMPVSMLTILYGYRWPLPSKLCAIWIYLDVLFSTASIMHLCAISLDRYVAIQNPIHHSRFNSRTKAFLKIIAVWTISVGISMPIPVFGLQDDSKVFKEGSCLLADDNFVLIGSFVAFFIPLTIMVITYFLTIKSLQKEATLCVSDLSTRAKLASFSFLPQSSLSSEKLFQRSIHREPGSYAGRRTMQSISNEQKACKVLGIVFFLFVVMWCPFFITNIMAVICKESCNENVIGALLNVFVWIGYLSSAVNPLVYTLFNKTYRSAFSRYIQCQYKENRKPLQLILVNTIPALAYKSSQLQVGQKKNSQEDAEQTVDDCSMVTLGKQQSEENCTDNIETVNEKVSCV
- protocol.notes: 5-HT2A competition binding assay, [3H]ketanserin, frontal cortex homogenates
- run.parameters: [3H]ketanserin 1 nM, read-out: Ki (nM ± SEM) (converted)
State just the number; it will be interpreted in nM.

[[record]]
molecule_smiles = "CC(=O)c1c(OCCCCCN2CCN(c3cc(C)ccc3C)CC2)ccc2c(C)cc(=O)oc12"
quantity_name = "Ki"
readout_units = "nM"
recorded_number = 1500

[[record]]
molecule_smiles = "CC(=O)c1c(OCCN2CCN(c3ccccc3Br)CC2)ccc2c(C)cc(=O)oc12"
quantity_name = "Ki"
readout_units = "nM"
recorded_number = 1500


Query: # return recorded Ki for entry CC(=O)c1c(C)cc2oc(=O)cc(C)c2c1OCCN1CCN(c2cccc(F)c2)CC1
Reply: 3860

Query: Complete the entry with Ki for Cc1cc(OCCCCCN2CCN(c3cccc(Cl)c3Cl)CC2)c2c(C)cc(=O)oc2c1
Reply: 1450

Query: Consider the molecule CC(=O)c1c(C)cc2oc(=O)cc(C)c2c1OCCN1CCN(c2cccc(Cl)c2Cl)CC1 and give its recorded Ki.
Reply: 1640

Query: Report Ki, nothing else, for this molecule: CC(=O)c1c(C)cc2oc(=O)cc(C)c2c1OCCN1CCN(c2cc(C)ccc2C)CC1
Reply: 11900

Query: Given the molecule CC(=O)c1c(OCCN2CCN(c3cccc(F)c3)CC2)ccc2c(C)cc(=O)oc12 , write its reported Ki.
Reply: 1670

Query: Specify measured Ki for COc1cccc(N2CCN(CCOc3cc(C)cc4oc(=O)cc(C)c34)CC2)c1 .
Reply: 458

Query: Report Ki, nothing else, for this molecule: COc1ccccc1N1CCN(CCCCCOc2ccc3c(C)cc(=O)oc3c2C(C)=O)CC1
Reply: 343

Query: For the molecule Cc1cc(OCCN2CCN(c3ccccc3Br)CC2)c2c(C)cc(=O)oc2c1 , report Ki.
Reply: 9600

Query: Indicate its recorded Ki; the molecule in question is Cc1cc(OCCN2CCN(c3ccccc3F)CC2)c2c(C)cc(=O)oc2c1
Reply: 2130

Query: Supply reported Ki belonging to this molecule: CC(=O)c1c(OCCCCCN2CCN(c3cc(C)cc(C)c3)CC2)ccc2c(C)cc(=O)oc12
Reply: 291

Query: Write down Ki measured for item CC(=O)c1c(C)cc2oc(=O)cc(C)c2c1OCCN1CCN(c2ccccc2F)CC1
Reply: 7050

Query: # return recorded Ki for entry CC(=O)c1c(OCCN2CCN(c3cccc(Br)c3)CC2)ccc2c(C)cc(=O)oc12
Reply: 1490

Query: Give me measured Ki, please, for this molecule: CC(=O)c1c(C)cc2oc(=O)cc(C)c2c1OCCCCCN1CCN(c2cccc(Cl)c2Cl)CC1
Reply: 486

Query: Quote Ki reported for CC(=O)c1c(OCCCCCN2CCN(c3cccc(Br)c3)CC2)ccc2c(C)cc(=O)oc12 please.
Reply: 81

Query: Given CC(=O)c1c(C)cc2oc(=O)cc(C)c2c1OCCN1CCN(c2ccccc2C#N)CC1 , respond with its Ki.
Reply: 2430

Query: Input COc1ccccc1N1CCN(CCCCCOc2c(C(C)=O)c(C)cc3oc(=O)cc(C)c23)CC1 , output reported Ki.
Reply: 641

Query: Return value of Ki for input CC(=O)c1c(OCCCCCN2CCN(c3ccccc3C#N)CC2)ccc2c(C)cc(=O)oc12 , no commentary.
Reply: 2550

Query: Look up and report measured Ki for this entry: CC(=O)c1c(OCCCCCN2CCN(c3cccc(Cl)c3Cl)CC2)ccc2c(C)cc(=O)oc12
Reply: 51

Query: Give a short answer stating reported Ki for Cc1cc(OCCCCCN2CCN(c3cccc(F)c3)CC2)c2c(C)cc(=O)oc2c1 .
Reply: 2350

Query: For the molecule COc1ccccc1N1CCN(CCOc2ccc3c(C)cc(=O)oc3c2C(C)=O)CC1 , give its reported Ki.
Reply: 752

Query: Identify measured Ki associated with Cc1cc(OCCCCCN2CCN(c3ccccc3F)CC2)c2c(C)cc(=O)oc2c1
Reply: 1260
